experiment: qHTS profiling of the MIPE4 collection as inhibitors of Plasmodium falciparum (3D7) proliferation (AID 743344); settings: P. falciparum 3D7 in erythrocytes, SYBR Green DNA fluorescence, 72 h; at 28.5 µM unless noted
Classify by measured parasite growth, % of DMSO control: y if it is equal to or exceeds 30%, n if it is smaller.

Task: Textbook exercise: given the entry N#CC(=C1Nc2ccccc2S1)c1ccnc(OCc2ccc(CN3CCOCC3)cc2)n1 , state whether its parasite growth, % of DMSO control is greater than or equal to 30%.
Result: n

Task: Does CC(=O)NCCC(=O)N[C@@H](CCC(N)=O)C(=O)N[C@@H](CO)C(=O)N[C@@H](CCC(N)=O)C(=O)N[C@@H](CCC(N)=O)C(=O)N[C@H](C(=O)N[C@@H](Cc1ccccc1)C(=O)N[C@]1(C)CCCCCCC=CCCC[C@@](C)(C(=O)N[C@@H](CCC(N)=O)C(=O)N[C@@H](CC(N)=O)C(N)=O)NC(=O)[C@H](CC(C)C)NC(=O)[C@H](CC(C)C)NC(=O)[C@@H](CCCNC(=N)N)NC(=O)[C@H](Cc2c[nH]c3ccccc23)NC(=O)[C@H](CC(C)C)NC(=O)[C@H](CC(N)=O)NC1=O)[C@H](C)O have a reported parasite growth, % of DMSO control of at least 30%?
Result: y

Task: Please indicate if the recorded parasite growth, % of DMSO control for CCOC(=O)[C@H]1O[C@H]1C(=O)N[C@@H](CC(C)C)C(=O)NCCC(C)C meets or exceeds 30%.
Result: n

Task: Textbook exercise: given the entry O=C(O)C1=CC(O)C(O)[C@H](O)C1 (some centres undefined) , state whether its parasite growth, % of DMSO control is greater than or equal to 30%.
Result: y

Task: Determine whether measured parasite growth, % of DMSO control meets or exceeds 30% for COc1ccnc(CS(=O)c2nc3ccc(OC(F)F)cc3[nH]2)c1OC (centres undefined)
Result: y

Task: Check this molecule for parasite growth, % of DMSO control at or above 30%: Cc1ccc(C(=O)N(CCCN)[C@@H](c2nc3cc(Cl)ccc3c(=O)n2Cc2ccccc2)C(C)C)cc1
Result: n

Task: Check this molecule for parasite growth, % of DMSO control at or above 30%: Cc1cc(C(C)Nc2ccccc2)c2nc(N3CCOCC3)cc(=O)n2c1 (centres undefined)
Result: n

Task: Given the entry COc1cc2ncnc(Nc3cc(Br)c(O)c(Br)c3)c2cc1OC , answer whether its parasite growth, % of DMSO control meets or surpasses 30%.
Result: n

Task: Hi team, for COC(=O)N1CCN(Cc2cccc(NC(=O)Nc3ccc(C)nc3)c2F)CC1 , is the recorded parasite growth, % of DMSO control at or above 30%?
Result: n

Task: Determine whether measured parasite growth, % of DMSO control meets or exceeds 30% for COc1nccc(-c2c(-c3ccc(F)cc3)ncn2C2CCC(O)CC2)n1 (centres undefined)
Result: y

Task: API: above_or_equal(metric=parasite growth, % of DMSO control, cutoff=30%) for item C=CC[N+]1([C@H]2C[C@H]3[C@@H]4CC[C@H]5C[C@H](O)[C@@H](N6CCOCC6)C[C@]5(C)[C@@H]4CC[C@]3(C)[C@H]2OC(C)=O)CCCC1
Result: y

Task: # bool: parasite growth, % of DMSO control of CSc1cccc(Nc2ncc3cc(-c4c(Cl)cccc4Cl)c(=O)n(C)c3n2)c1 >= 30%
Result: n

Task: Could you verify whether the entry NC1(C(=O)N[C@@H](CCO)c2ccc(Cl)cc2)CCN(c2ncnc3[nH]ccc23)CC1 shows parasite growth, % of DMSO control of no less than 30%?
Result: y

Task: Would you say OC[C@H]1O[C@@H](O[C@H]2[C@@H](O)[C@@](O)(CO)O[C@@H]2CO)[C@H](O)[C@@H](O)[C@@H]1O shows parasite growth, % of DMSO control at minimum 30%?
Result: y

Task: Given C[C@@H](N)c1ccc(C(=O)Nc2ccnc3[nH]ccc23)cc1 , state whether its parasite growth, % of DMSO control is at least 30%.
Result: y

Task: Check if parasite growth, % of DMSO control >= 30% (inclusive). Item: Clc1ccc(C2(c3ccc(-c4cn[nH]c4)cc3)CCNCC2)cc1
Result: n

Task: Confirm if parasite growth, % of DMSO control reported for the molecule O=C1CN2Cc3c(ccc(Cl)c3Cl)N=C2N1 is 30% or above.
Result: y

Task: Entry N#CC1(c2cccc(C(=O)Nc3cc(Oc4ccc5nc(NC(=O)C6CC6)sc5n4)ccc3F)c2Cl)CC1 : is its parasite growth, % of DMSO control no less than 30%?
Result: n

Task: Does the molecule Cc1cnc(Nc2cccc(CN3CCOCC3)c2)nc1Nc1cccc(S(=O)(=O)NC(C)(C)C)c1 have recorded parasite growth, % of DMSO control that is 30% or more?
Result: n

Task: Please indicate if the recorded parasite growth, % of DMSO control for CCC[C@@H](NC(=O)[C@@H]1[C@H]2CCC[C@@H]2CN1C(=O)[C@@H](NC(=O)[C@@H](NC(=O)c1cnccn1)C1CCCCC1)C(C)(C)C)C(=O)C(=O)NC1CC1 meets or exceeds 30%.
Result: n

Task: Would you say CN(C)CCOc1ccc(-c2nc(-c3ccc4c(c3)CCC4=NO)c(-c3ccncc3)[nH]2)cc1 shows parasite growth, % of DMSO control at minimum 30%?
Result: n

Task: Is parasite growth, % of DMSO control at least 30%? Consider COc1cc2c(cc1OC)[C@@H]1Cc3ccc(OC)c(OC)c3CN1CC2
Result: n

Task: Please check the record N#CC(c1ccc(Cl)cc1)c1c(Cl)cc(-n2ncc(=O)[nH]c2=O)cc1Cl (centres undefined) and state if its parasite growth, % of DMSO control is at or above 30%.
Result: n

Task: Is the recorded value of parasite growth, % of DMSO control equal to or greater than 30% for this molecule? CCc1cc(-c2n[nH]c(C)c2-c2ccc3c(c2)OCCO3)c(O)cc1O
Result: y

Task: I'd appreciate it if you could say whether Cn1c(=O)c(Oc2ccc(F)cc2F)cc2cnc(NC3CCOCC3)nc21 has parasite growth, % of DMSO control at least equal to 30%.
Result: n

Task: Record CON(C)C(=O)N1N=C(c2cc(F)ccc2F)S[C@]1(CCCN)c1ccccc1 ; criterion: parasite growth, % of DMSO control no lower than 30%. Met?
Result: n

Task: Is parasite growth, % of DMSO control at least 30%? Consider O=c1[nH]nc(OCCCc2ccc(Cl)cc2)c(NCc2cccnc2)c1Br
Result: n

Task: Could you verify whether the entry O=C(Nc1cccc2c(=O)cc(-c3nn[nH]n3)oc12)c1ccc(OCCCCc2ccccc2)cc1 shows parasite growth, % of DMSO control of no less than 30%?
Result: n

Task: Dear colleague, could you confirm whether CC1(C)CC(=O)c2c(C(F)(F)F)nn(-c3ccc(C(N)=O)c(NC4CCC(O)CC4)c3)c2C1 (centres undefined) has parasite growth, % of DMSO control at or above 30%?
Result: n

Task: Kindly determine if parasite growth, % of DMSO control recorded for Cc1cc(OCCCS(C)(=O)=O)cc(C)c1-c1cccc(COc2ccc3c(c2)OC[C@H]3CC(=O)O)c1 is above or exactly 30%.
Result: y
